pKd: −log10 of the molar value.
Compiled literature pKd, tested on Galectin-8 (Homo sapiens, UniProt O00214).
RECORDED_METRIC: pKd

C=CCNC(=O)c1cn([C@H]2[C@@H](O)[C@@H](CO)O[C@@H](S[C@@H]3O[C@H](CO)[C@H](O)[C@H](n4cc(C(=O)NCC=C)nn4)[C@H]3O)[C@@H]2O)nn1	4.18

(P) O=C(O[C@H]1[C@@H](O)[C@@H](CO)O[C@@H](S[C@@H]2O[C@H](CO)[C@H](O)[C@H](OC(=O)c3ccc4ccccc4c3)[C@H]2O)[C@@H]1O)c1ccc2ccccc2c1
(Q) CO[C@H]1O[C@H](CO)[C@H](O)[C@H](OCc2cc3ccccc3oc2=O)[C@H]1O
(R) CC(=O)N[C@@H]1[C@@H](O)[C@H](O[C@@H]2O[C@H](CO)[C@H](O)[C@H](O)[C@H]2O)[C@@H](CO)O[C@H]1O
INPUT: List the 3 entries from lowest pKd to highest pKd value. Please list the labels in the order you were asked to rank them.
OUTPUT: R, Q, P
(R: 3.00, Q: 3.74, P: 4.00)

----------
Molecular target: Galectin-8 (Homo sapiens)
Sequence (O00214 whole entry): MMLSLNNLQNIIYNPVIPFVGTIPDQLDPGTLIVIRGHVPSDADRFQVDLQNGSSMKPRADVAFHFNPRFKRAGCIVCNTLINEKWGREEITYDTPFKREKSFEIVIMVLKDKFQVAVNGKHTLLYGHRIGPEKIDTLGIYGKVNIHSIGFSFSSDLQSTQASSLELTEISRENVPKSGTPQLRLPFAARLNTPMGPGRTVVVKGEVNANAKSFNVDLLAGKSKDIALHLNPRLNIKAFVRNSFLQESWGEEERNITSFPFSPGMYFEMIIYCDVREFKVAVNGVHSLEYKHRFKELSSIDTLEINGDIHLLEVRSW
pKd: −log10 of the molar value.
Here's a roundup of pKd values tested on Galectin-8 (Homo sapiens), taken from various published works.
RECORDED_METRIC: pKd

(a) COc1cc(OC)cc(C(=O)N[C@@H]2[C@@H](O)[C@@H](S[C@@H]3O[C@H](CO)[C@H](O)[C@H](NC(=O)c4cc(OC)cc(OC)c4)[C@H]3O)O[C@H](CO)[C@@H]2O)c1
(b) CO[C@H]1O[C@H](CO)[C@H](O)[C@H](OCc2cc3ccccc3o/c2=N\S(=O)(=O)c2ccc(C)cc2)[C@H]1O
(c) COc1cc(OC)cc(OC(=O)CC(=O)O[C@H]2[C@@H](O)[C@@H](CO)O[C@@H](OC)[C@@H]2O)c1
(d) O=C(O[C@H]1[C@@H](O)[C@@H](CO)O[C@@H](S[C@@H]2O[C@H](CO)[C@H](O)[C@H](OC(=O)c3cccc4ccccc34)[C@H]2O)[C@@H]1O)c1cccc2ccccc12
INPUT: Using the recorded pKd, list the entries above from smallest to largest. Use the labels to give the requested order.
OUTPUT: b, a, d, c

(I) CO[C@H]1O[C@H](CO)[C@H](O)[C@H](OCc2cc3ccccc3o/c2=N\S(=O)(=O)c2ccccc2)[C@H]1OC(C)=O
(II) CO[C@@H]1O[C@H](CO)[C@H](O)[C@H](OC(=O)CC(=O)Oc2ccc(Cl)cc2Cl)[C@H]1O
(III) O=C(NCCc1ccccc1)c1cn([C@H]2[C@@H](O)[C@@H](CO)O[C@@H](S[C@@H]3O[C@H](CO)[C@H](O)[C@H](n4cc(C(=O)NCCc5ccccc5)nn4)[C@H]3O)[C@@H]2O)nn1
(IV) O=C(O[C@H]1[C@@H](O)[C@@H](CO)O[C@@H](S[C@@H]2O[C@H](CO)[C@H](O)[C@H](OC(=O)c3ccccc3)[C@H]2O)[C@@H]1O)c1ccccc1
INPUT: Kindly order the items shown according to pKd, from the highest value down. To answer, arrange all of the labels according to the requested order.
OUTPUT: II, III, IV, I
(II: 4.92, III: 4.70, IV: 3.98, I: 3.57)

----------
Target: Galectin-8 (Homo sapiens)
Sequence (O00214 whole entry): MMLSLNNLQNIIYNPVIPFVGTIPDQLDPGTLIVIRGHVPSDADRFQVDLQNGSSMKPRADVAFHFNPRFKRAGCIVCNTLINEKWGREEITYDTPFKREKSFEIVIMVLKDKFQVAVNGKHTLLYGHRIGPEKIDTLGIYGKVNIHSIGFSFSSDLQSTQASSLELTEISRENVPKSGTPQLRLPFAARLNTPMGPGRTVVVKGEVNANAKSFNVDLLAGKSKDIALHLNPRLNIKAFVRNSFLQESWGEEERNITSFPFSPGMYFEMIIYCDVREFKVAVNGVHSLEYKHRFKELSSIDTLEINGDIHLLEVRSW
pKd: −log10 of the molar value.
Collected set of pKd measured with Galectin-8 (Homo sapiens) across studies.
RECORDED_METRIC: pKd

CC(O)CNC(=O)c1cn([C@H]2[C@@H](O)[C@@H](CO)O[C@@H](S[C@@H]3O[C@H](CO)[C@H](O)[C@H](n4cc(C(=O)NCC(C)O)nn4)[C@H]3O)[C@@H]2O)nn1 (stereo partly drawn)	4.24

(I) CO[C@H]1O[C@H](CO)[C@H](O)[C@H](OCc2cc3ccccc3o/c2=N\S(=O)(=O)c2ccccc2)[C@H]1O
(II) COc1cccc(C(=O)O[C@H]2[C@@H](O)[C@@H](CO)O[C@@H](S[C@@H]3O[C@H](CO)[C@H](O)[C@H](OC(=O)c4cccc(OC)c4)[C@H]3O)[C@@H]2O)c1
INPUT: Between I and II , which one shows the larger pKd value? Give the chosen item's label as your response.
OUTPUT: II
(II: 4.38, I: 3.41)
